# test.method.notes: NOVARTIS: Cytotoxicity against human hepatocellular carcinoma cell line (Huh7)
# Format: toxicity, cell-based, Huh-7
# condition.notes: Huh7 cells (hepatocellular carcinoma cell line)
So I've got a bunch of molecules here, and I need their CC50 values.

Data request, read-out CC50, for COc1ccc(CN(C)C(C)C)cc1OC1CCN(C(=O)C2CCC2)CC1
> 100 µM

Data request, read-out CC50, for COc1ccc(C(=O)N2C(C(=O)NCCC(C)C)CSC2c2ccc(C(C)(C)C)cc2)cc1 (stereo not drawn)
> 4.48 µM

Data request, read-out CC50, for O=C(NC1CC1)C1CCN(S(=O)(=O)c2ccc(Cl)cc2)CC1
> 100 µM

====

# test.method.notes: NOVARTIS: Cytotoxicity against human hepatocellular carcinoma cell line (Huh7)
# Assay type: toxicity, cell-based, Huh-7
# condition.notes: Huh7 cells (hepatocellular carcinoma cell line)
readout.name: CC50

Data request, read-out CC50, for COc1ccc(/C=C2\SC(=O)NC2=Nc2ccccc2)c(OC)c1
> 10 µM

Data request, read-out CC50, for COc1ccc(NC(=O)CN2CCN(S(=O)(=O)c3cccc([N+](=O)[O-])c3)CC2)c(OC)c1
> 100 µM

Data request, read-out CC50, for O=C(O)C=CC(=O)N(C1CCCCC1)C1CCCCC1
> 100 µM

Data request, read-out CC50, for Cc1ccn2c(NC(C)(C)CC(C)(C)C)c(-c3ccccc3OC(=O)c3ccc(C(F)(F)F)cc3)nc2c1
> 10 µM

Data request, read-out CC50, for COc1ccc2nc(NC(N)=NC(=O)Nc3ccccc3)nc(C)c2c1
34.8 µM

Data request, read-out CC50, for Cc1cc(C)c(CSc2ncnc3[nH]cnc23)c(C)c1
> 10 µM

Data request, read-out CC50, for FC(F)(F)COc1ccc(OCC(F)(F)F)c(-c2ncnn2-c2ccccc2)c1
> 100 µM

Data request, read-out CC50, for COC(=O)C1=C(C)NC(=Cc2cc(C)n(-c3cc(Cl)ccc3Cl)c2C)C1=O
> 100 µM

Data request, read-out CC50, for CCOC(=O)CCCSc1nc(-c2cccs2)cc(C(F)(F)F)c1C#N
> 10 µM

Data request, read-out CC50, for CCCOC(=O)C1=C(C)NC2=C(C(=O)CCC2)C1c1cc(Br)c(O)c(OCC)c1 (centres undefined)
> 100 µM

Data request, read-out CC50, for O=C(Nc1ccc(-c2nc3ccccc3[nH]2)cc1)c1ccccc1Oc1ccccc1
> 100 µM

Data request, read-out CC50, for Cc1c(C#N)c2ccccc2n1CC(=O)Nc1ccc(Br)cc1
11.1 µM

Data request, read-out CC50, for CC(C)(C)NCC(O)Cn1c2ccc(Cl)cc2c2cc(Cl)ccc21 (centres undefined)
18.8 µM

Data request, read-out CC50, for Cc1ccc2c(c1)-c1c(ssc1=S)C(C)(C)N2C(=O)c1ccco1
> 100 µM

Data request, read-out CC50, for O=C1c2cccc(N3CCCC(C(=O)N4CCCCC4c4cccnc4)C3)c2C(=O)N1Cc1ccc(C(F)(F)F)cc1 (centres undefined)
> 100 µM

Data request, read-out CC50, for Nc1cccc(Oc2ccc3c(c2)C(=O)N(c2cccc(C(=O)O)c2)C3=O)c1
> 10 µM

Data request, read-out CC50, for COc1nncc(-c2cnnc(SC)n2)n1
28.4 µM

Data request, read-out CC50, for O[C@@]1(c2cc3ccccc3s2)CN2CCC1CC2
> 10 µM

Data request, read-out CC50, for COc1ccc2nc3cc(Cl)ccc3c(NCCN(CCN)CCN)c2c1
> 10 µM

Data request, read-out CC50, for Cc1cc(N2CCC(C)CC2)nc(-n2nc(C)cc2C)n1
> 100 µM

Data request, read-out CC50, for CN(C)CCCNc1ncc(C(=O)NCCc2ccccc2)c(NCC2CCCCC2)n1
> 10 µM

Data request, read-out CC50, for CC1=C(C(=O)OC(C)C)C(c2ccccc2Cl)C2=C(CC(c3ccccc3)CC2=O)N1 (centres undefined)
> 64.2 µM

Data request, read-out CC50, for Cc1c2c(n3c(nc4ccccc43)c1C#N)N(CCN(C)C)CC2
> 100 µM

Data request, read-out CC50, for CCOC(=O)c1cnc2c(OC)cccc2c1Nc1ccc(OC)c(OC)c1
> 10 µM

Data request, read-out CC50, for COc1ccccc1N1CCN(c2ccc(NC(=O)c3ccc(Br)cc3)cc2C(=O)NCCCN(C)C)CC1
1.34 µM

Data request, read-out CC50, for O=C1c2ccccc2-[n+]2ccc3c([nH]c4ccccc43)c21 [FASCAPLYSIN CHLORIDE]
0.589 µM

Data request, read-out CC50, for Cc1ccc(-c2ccc(C#N)c(OCC(=O)NCCc3ccccc3)n2)c(C)c1
> 10 µM

Data request, read-out CC50, for Cc1ccc(CC(=O)Nc2ccc(I)cc2)cc1
> 100 µM

Data request, read-out CC50, for Cc1ncc([N+](=O)[O-])n1CCOC(=O)NC(Nc1ccc(Br)cc1)C(Cl)(Cl)Cl (centres undefined)
> 100 µM

Data request, read-out CC50, for COc1ccc(O)c(C=NNc2nc3ccccc3[nH]2)c1
43.9 µM

Data request, read-out CC50, for CC(C)(CCl)C(=O)NCCCCNc1ccnc2cc(Cl)ccc12
> 11.3 µM

Data request, read-out CC50, for COc1ccccc1C1CC(c2ccccc2)=NN1C(=O)c1ccccc1 (centres undefined)
67 µM

Data request, read-out CC50, for O=C(NCCc1ccc(-c2ccccc2)cc1)c1ccc(NS(=O)(=O)C(F)(F)F)cc1
> 8.73 µM

Data request, read-out CC50, for Cc1ccc(-n2c(-c3ccccc3)cc(C=NNC(=O)c3cccc(-n4c(C)ccc4C)c3)c2-c2ccccc2)cc1
> 100 µM
